Target: EphB3(h) (Homo sapiens)
Sequence (P54753 34-998): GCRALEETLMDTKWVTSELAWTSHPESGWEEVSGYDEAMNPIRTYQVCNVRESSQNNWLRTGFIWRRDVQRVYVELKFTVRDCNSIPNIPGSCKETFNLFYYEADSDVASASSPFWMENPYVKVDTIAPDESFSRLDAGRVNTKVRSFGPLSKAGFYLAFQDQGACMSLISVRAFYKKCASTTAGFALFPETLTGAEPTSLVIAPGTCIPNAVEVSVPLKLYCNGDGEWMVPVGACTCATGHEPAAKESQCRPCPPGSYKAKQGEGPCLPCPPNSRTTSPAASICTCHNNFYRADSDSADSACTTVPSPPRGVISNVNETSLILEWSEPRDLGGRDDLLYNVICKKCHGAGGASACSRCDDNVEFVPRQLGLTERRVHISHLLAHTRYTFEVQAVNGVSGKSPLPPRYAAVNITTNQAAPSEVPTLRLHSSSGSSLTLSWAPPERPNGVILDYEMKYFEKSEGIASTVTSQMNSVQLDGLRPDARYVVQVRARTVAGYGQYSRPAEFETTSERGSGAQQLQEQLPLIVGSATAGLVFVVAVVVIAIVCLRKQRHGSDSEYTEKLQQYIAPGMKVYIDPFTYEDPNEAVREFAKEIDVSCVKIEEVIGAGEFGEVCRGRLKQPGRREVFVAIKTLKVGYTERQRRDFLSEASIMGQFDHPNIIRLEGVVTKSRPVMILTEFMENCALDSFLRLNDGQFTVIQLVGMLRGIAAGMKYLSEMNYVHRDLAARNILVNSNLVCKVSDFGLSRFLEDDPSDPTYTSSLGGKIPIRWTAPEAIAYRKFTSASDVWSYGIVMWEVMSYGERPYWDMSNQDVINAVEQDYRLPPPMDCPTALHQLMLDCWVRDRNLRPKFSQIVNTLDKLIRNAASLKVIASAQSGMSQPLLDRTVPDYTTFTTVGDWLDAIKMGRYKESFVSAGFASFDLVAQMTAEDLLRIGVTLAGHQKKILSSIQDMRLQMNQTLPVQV
Assay: Kinase Profiling Assay
Format: biochemical
Settings: peptide 100 μM
quantity.kind: % activity (%)
Hi! Could you send only the number? It should be in %, unit omitted.

{"primary.sequence": "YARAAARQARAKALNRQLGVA (Mammal) [MMI-0200]", "target.or.system": "EphB3(h) (Homo sapiens)", "measured.value": 128}
{"primary.sequence": "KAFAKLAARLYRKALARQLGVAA [MMI-0400]", "target.or.system": "EphB3(h) (Homo sapiens)", "measured.value": 47}
{"primary.sequence": "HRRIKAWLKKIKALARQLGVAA (Mammal) [MMI-0500]", "target.or.system": "EphB3(h) (Homo sapiens)", "measured.value": 79}

### Prompt What value of % activity has been reported for the following sequence? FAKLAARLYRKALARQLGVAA [MMI-0300]
### Response 62

Taken from patent US20150258192A1.
